Hey, just so you know, these numbers are from BindingDB's records for doi:10.1021/jm025558r.

experimental_target: D(1) dopamine receptor (Sus scrofa)
method: Binding affinity for porcine Dopamine receptor D1 by [3H]-SCH- 23390 displacement.
result_type: Ki (nM)
One number for each entry, in nM.

Task: Notebook: pull reported Ki for D(1) dopamine receptor (Sus scrofa), entry O=C(NCCCCN1CCN(c2cccc(Cl)c2Cl)CC1)c1cc2ccccc2[te]1
Output: 1400
